Target: T1, human LAG3 (construct not stated) (human, UniProt P18627 23-450, limits assumed)
T1 construct: also called human LAG3 protein; antigen
T1 sequence (looked up): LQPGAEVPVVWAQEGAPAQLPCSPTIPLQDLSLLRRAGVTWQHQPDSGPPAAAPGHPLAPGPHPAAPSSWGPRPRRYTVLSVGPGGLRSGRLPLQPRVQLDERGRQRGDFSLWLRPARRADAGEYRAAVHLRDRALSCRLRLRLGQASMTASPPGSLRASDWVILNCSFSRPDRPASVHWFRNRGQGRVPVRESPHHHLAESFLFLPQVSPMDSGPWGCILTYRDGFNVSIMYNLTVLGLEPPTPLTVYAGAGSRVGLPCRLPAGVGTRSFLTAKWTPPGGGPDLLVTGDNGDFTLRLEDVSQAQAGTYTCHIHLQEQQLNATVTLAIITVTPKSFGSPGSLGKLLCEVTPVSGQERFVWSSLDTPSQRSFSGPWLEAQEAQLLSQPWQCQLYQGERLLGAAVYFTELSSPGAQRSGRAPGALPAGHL
Test: BLI Octet Red 96, full kinetics, antigen 50-3.125 nM
property_measured: kon (M⁻¹ s⁻¹)

>>> obs_value("147H-6 (antibody, V domains shown, Common light chain; human gamma 1 / kappa constant domains) VH: QVQLVQSGAEVKKPGASVKVSCKASGYTFTNYWLGWIKQAPGQGLEWIGDIYPGGDYINYNEKFKGKATLTADTSISTAYMELSRLRSDDTAVYYCARPNLPGDYWGQGTTVTVSS VL: DIVMTQSPLSLPVTPGEPASISCRSSKSLLHSNGITYLYWYLQKPGQSPQLLIYQVSNLASGVPDRFSGSGSGTDFTLKISRVEAEDVGVYYCAQNLELPWTFGGGTKVEIK")
105000
>>> obs_value("147H chimeric antibody (antibody, V domains shown) VH: QVQLQQSGSELVRPGTSVKISCKASGYTFTNYWLGWIKQRPGHGLEWIGDIYPGGDYINYNEKFKGKATLSADTSSSTAYMQLSSLTSEDSAVYFCARPNLPGDYWGQGTSVTVSS VL: DIVMTQAAFSNPVTLGTSASISCRSSKSLLHSNGITYLYWYLQKPGQSPQLLIYQVSNLASGVPGRFSGSGSGTDFTLRISRVEAEDVGVYYCAQNLELPWTFGGGTKLEIK")
80100
>>> obs_value("147H-13 (antibody, V domains shown, Common light chain; human gamma 1 / kappa constant domains; also called 147H4-13) VH: EVQLVQSGAEVKKPGASVKVSCKASGYTFTNYWLGWIKQAPGQGLEWIGDIYPGGDYINYNEKFKGKATLTADTSISTAYMELSRLRSDDTAVYYCARPNLPGDYWGQGTTVTVSS VL: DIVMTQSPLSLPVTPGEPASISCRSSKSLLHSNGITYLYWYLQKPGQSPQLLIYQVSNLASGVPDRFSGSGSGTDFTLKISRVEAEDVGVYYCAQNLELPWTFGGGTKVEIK")
104000
